- Test system: Enterococcus faecalis
- measurementNotes: Minimum inhibitory activity against Enterococcus faecalis GC 2242 (VRE)
- Assay type: functional
measurementName: log10 of MIC (log10 of the value in µg/mL)
Kindly note that the scale is log10 and the underlying MIC is in µg/mL.

Solved cases below.
Oc1c2c(nn1-c1cccc(C(F)(F)F)c1)CCS2 :: 0.90
O=[N+]([O-])c1cccc(-n2nc3c(c2O)SCC3)c1 :: 1.51
N#Cc1cccc(-n2nc3c(c2O)SCC3)c1 :: 0.90
Oc1c2c(nn1-c1ccc(Cl)cc1)CC(c1ccccc1)S2 (stereo not given) :: 1.81
NC(=O)c1cccc(-n2nc3c(c2O)SCC3)c1 :: 1.51
CC1Cc2nn(-c3ccc(Cl)cc3)c(O)c2S1 (stereo not given) :: 0.30
Oc1c2c(nn1-c1ccccc1C(F)(F)F)CCS2 :: 1.20
Oc1c2c(nn1-c1ccc(Br)cc1)CCS2 :: 1.51
Oc1c2c(nn1-c1ccc(Cl)cc1)CCS2 :: 1.20
N#Cc1ccc(-n2nc3c(c2O)SCC3)cc1 :: 0.90

# input So what's the measured log10 of MIC for this one? Oc1c2c(nn1-c1ccc(Cl)c(Cl)c1)CCS2
# output 1.81

# input So what's the measured log10 of MIC for this one? Oc1c2c(nn1-c1cc(C(F)(F)F)cc(C(F)(F)F)c1)CCS2
# output 1.20

# input So what's the measured log10 of MIC for this one? Oc1c2c(nn1-c1ccc(C(F)(F)F)cc1)CCS2
# output 0.90

# input So what's the measured log10 of MIC for this one? O=[N+]([O-])c1ccc(-n2nc3c(c2O)SCC3)cc1
# output 1.81

# input So what's the measured log10 of MIC for this one? Oc1c2c(nn1-c1ccc(F)cc1)CCS2
# output 0.90

# input So what's the measured log10 of MIC for this one? Oc1c2c(nn1-c1cccc(Cl)c1)CCS2
# output 0.90

# input So what's the measured log10 of MIC for this one? Oc1c2c(nn1-c1ccccc1)CCS2
# output 0.60

====

- measurementNotes: Partition coefficient (logP)
- Assay type: physicochemical
- measurementSetup: octanol/water
measurementName: logP
Lab note: record the figure alone, no unit after it.

N#Cc1ccc(-n2nc3c(c2O)SCC3)cc1 :: 2.53
[O-][S+]1CCc2nn(-c3ccc(Cl)c(Cl)c3)c(O)c21 (stereo not given) :: 2.01
NC(=O)c1cccc(-n2nc3c(c2O)SCC3)c1 :: 1.41
Oc1c2c(nn1-c1ccc(Cl)c(Cl)c1)CCS2 :: 3.62

Below: the item to evaluate.
# input So what's the measured logP for this one? Oc1c2c(nn1-c1ccc(Cl)cc1)CCS2
# output 3.06

====

IC50 listing for selected molecules.
- targetDesc: UDP-N-acetylenolpyruvoylglucosamine reductase (Staphylococcus aureus, UniProt P61431)
- Sequence (P61431 whole entry): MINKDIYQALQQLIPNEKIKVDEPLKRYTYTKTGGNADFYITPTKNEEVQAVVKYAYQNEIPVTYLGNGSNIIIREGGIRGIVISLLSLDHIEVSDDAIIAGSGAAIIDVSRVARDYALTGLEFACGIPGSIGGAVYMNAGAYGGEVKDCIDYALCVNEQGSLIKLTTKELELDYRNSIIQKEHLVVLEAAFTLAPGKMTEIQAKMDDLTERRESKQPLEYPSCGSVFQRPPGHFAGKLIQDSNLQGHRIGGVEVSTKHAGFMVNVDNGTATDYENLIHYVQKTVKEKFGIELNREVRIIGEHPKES

CC(C)c1ccc(-n2nc3c(c2O)SCC3)cc1 :: > 96 µM

# input So what's the measured IC50 for this one? O=[N+]([O-])c1ccc(-n2nc3c(c2O)CSCC3)cc1
# output > 90.2 µM

# input So what's the measured IC50 for this one? Oc1c2c(nn1-c1cccc(Cl)c1)CCS2
# output > 98.9 µM
